Exercise: for every item that follows, state its recorded pIC50.
# TARGET_OF_ASSAY: Jack Bean Urease (Canavalia ensiformis)
# ASSAY_NAME: biochemical
# Experimental: Urease inhibitory potential for each synthesisized compound (T1–T20) was evaluated using Jack Bean Urease by Indophenol method (Table 5, Figs. 9, 10, 11). […] Absorbance of reaction mixture was recorded by ELISA at 570 nm. Ammonium carbonate increased the pH of phosphate buffer from 6.8 to 7.7 which was produced from urea by urease enzyme and the end peak was measured by the colour of phenol red indicator [16]. […]
One number for each entry, as −log10 of the molar value.

As a guide, the following entries are already answered.
CCCCCCCCCCCCCCCc1nnc(S)n1N=Cc1ccc(Cl)cc1
3.92
CCCCCCCCCCCCCCCc1nnc(S)n1N=Cc1ccc(OC)c(O)c1
3.99
CCCCCCCCCCCCCCCc1nnc(S)n1N=Cc1ccc(O)cc1
3.88
CCCCCCCCCCCCCCCc1nnc(S)n1N=Cc1ccc([N+](=O)[O-])cc1
3.90
CCCCCCCCCCCCCCCc1nnc(S)n1N=Cc1cccc(Br)c1
3.99

Consider the following items and state reported pIC50 for each.
1. CCCCCCCCCCCCCCCc1nnc(S)n1N=Cc1ccc(C=O)cc1
2. CCCCCCCCCCCCCCCc1nnc(S)n1N=Cc1ccc(Cl)cc1Cl

1. 3.92
2. 3.92

* * *

# Tested on: Pseudomonas aeruginosa
# ASSAY_NAME: In vitro antimicrobial screening, tube dilution method
# Assay type: cell-based
# CONDITION_NOTES: P. aeruginosa, Gram −ve; nutrient broth, 37 ± 1 °C, 24 h; read-out: Minimum inhibitory concentration
Binary label based on MIC with cut-off 50 µM: below gives Met, not below gives Not met.

Answered cases to consult:
O=C(O)c1cn(C2CC2)c2cc(N3CCNCC3)c(F)cc2c1=O [Ciprofloxacin, reference compound]
Met
CCCCCCCCCCCCCCCc1nnc(S)n1N=Cc1ccccc1O
Met
CCCCCCCCCCCCCCCc1nnc(S)n1N=Cc1c(O)ccc2ccccc12
Not met

Does CCCCCCCCCCCCCCCc1nnc(S)n1N=Cc1ccc(O)cc1 have MIC strictly under 50 µM?
Not met

Does CCCCCCCCCCCCCCCc1nnc(S)n1N=Cc1ccco1 have MIC strictly under 50 µM?
Not met

* * *

# TARGET_OF_ASSAY: Jack Bean Urease (Canavalia ensiformis, UniProt P07374)
# Sequence (P07374 whole entry, looked up): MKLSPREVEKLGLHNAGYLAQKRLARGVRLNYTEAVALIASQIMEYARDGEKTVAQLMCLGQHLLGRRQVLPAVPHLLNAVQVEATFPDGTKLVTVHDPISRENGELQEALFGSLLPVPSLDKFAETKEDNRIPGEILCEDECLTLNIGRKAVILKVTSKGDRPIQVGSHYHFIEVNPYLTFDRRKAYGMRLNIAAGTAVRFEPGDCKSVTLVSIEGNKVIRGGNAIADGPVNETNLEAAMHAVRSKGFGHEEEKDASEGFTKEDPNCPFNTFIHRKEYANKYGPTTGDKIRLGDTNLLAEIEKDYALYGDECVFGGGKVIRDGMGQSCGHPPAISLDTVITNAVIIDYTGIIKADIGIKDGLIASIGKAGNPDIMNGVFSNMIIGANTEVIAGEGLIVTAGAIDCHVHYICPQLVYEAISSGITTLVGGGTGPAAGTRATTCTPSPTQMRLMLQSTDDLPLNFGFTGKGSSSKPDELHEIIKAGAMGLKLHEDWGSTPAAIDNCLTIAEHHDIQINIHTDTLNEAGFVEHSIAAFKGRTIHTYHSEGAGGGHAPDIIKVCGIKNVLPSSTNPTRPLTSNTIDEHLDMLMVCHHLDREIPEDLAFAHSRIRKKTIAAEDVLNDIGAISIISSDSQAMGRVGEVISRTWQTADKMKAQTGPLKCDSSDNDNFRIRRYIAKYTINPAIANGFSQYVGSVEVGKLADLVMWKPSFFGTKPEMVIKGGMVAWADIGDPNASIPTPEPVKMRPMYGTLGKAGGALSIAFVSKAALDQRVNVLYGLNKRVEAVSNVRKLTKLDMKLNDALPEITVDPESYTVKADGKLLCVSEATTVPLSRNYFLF
# ASSAY_NAME: biochemical
Exercise: for every item that follows, state its recorded inhibition at 25 µg/mL.
Answers are plain numbers, in %.

As a guide, the following entries are already answered.
CCCCCCCCCCCCCCCc1nnc(S)n1N=Cc1ccccc1O
24
CCCCCCCCCCCCCCCc1nnc(S)n1N=Cc1ccc(Br)cc1
41.7
CCCCCCCCCCCCCCCc1nnc(S)n1N=Cc1ccc(C=O)cc1
40.5
CCCCCCCCCCCCCCCc1nnc(S)n1N=Cc1ccc(OC)c(OC)c1
35.5

Consider the following items and state reported inhibition at 25 µg/mL for each.
1. CCCCCCCCCCCCCCCc1nnc(S)n1N=Cc1ccccc1[N+](=O)[O-]
2. CCCCCCCCCCCCCCCc1nnc(S)n1N=Cc1ccc([N+](=O)[O-])cc1

1. 29
2. 37.9

Consider the following items and state reported inhibition at 25 µg/mL for each.
1. CCCCCCCCCCCCCCCc1nnc(S)n1N=Cc1ccc(OC)c(O)c1
2. CCCCCCCCCCCCCCCc1nnc(S)n1N=Cc1ccc(C)cc1

1: 38.5; 2: 28.2

* * *

PROPERTY_NAME: melting point

As a guide, the following entries are already answered.
CCCCCCCCCCCCCCCc1nnc(S)n1N=Cc1cccc(Cl)c1
205 to 208 °C
CCCCCCCCCCCCCCCc1nnc(S)n1N=Cc1ccc(OC)c(OC)c1
188 to 191 °C
CCCCCCCCCCCCCCCc1nnc(S)n1N=Cc1ccc(Cl)cc1
202 to 205 °C
CCCCCCCCCCCCCCCc1nnc(S)n1N=Cc1ccc([N+](=O)[O-])cc1
206 to 209 °C
CCCCCCCCCCCCCCCc1nnc(S)n1N=Cc1ccc(N(C)C)cc1
198 to 201 °C

Consider the following items and state reported melting point for each.
1. CCCCCCCCCCCCCCCc1nnc(S)n1N=Cc1ccccc1O
2. CCCCCCCCCCCCCCCc1nnc(S)n1N=Cc1ccc(C)cc1
3. CCCCCCCCCCCCCCCc1nnc(S)n1N=Cc1ccc(Br)cc1
4. CCCCCCCCCCCCCCCc1nnc(S)n1N=Cc1ccc(OC)c(O)c1
5. CCCCCCCCCCCCCCCc1nnc(S)n1N=Cc1cccc([N+](=O)[O-])c1
6. CCCCCCCCCCCCCCCc1nnc(S)n1N=Cc1cccc(Br)c1

1: 181 to 184 °C; 2: 190 to 193 °C; 3: 193 to 196 °C; 4: 189 to 192 °C; 5: 199 to 202 °C; 6: 197 to 200 °C

* * *

# ASSAY_NAME: DPPH free radical scavenging activity
# CONDITION_NOTES: DPPH antioxidant
Exercise: for every item that follows, state its recorded IC50.

As a guide, the following entries are already answered.
CCCCCCCCCCCCCCCc1nnc(S)n1N=Cc1ccc(C=O)cc1 [Compound T2]
34.83 µg/mL
CCCCCCCCCCCCCCCc1nnc(S)n1N=Cc1ccc(Cl)cc1Cl [Compound T12]
39.56 µg/mL
CCCCCCCCCCCCCCCc1nnc(S)n1N=Cc1ccc(O)cc1 [Compound T8]
36.12 µg/mL

Consider the following items and state reported IC50 for each.
1. CCCCCCCCCCCCCCCc1nnc(S)n1N=Cc1ccc(OC)c(OC)c1 [Compound T4]
2. CCCCCCCCCCCCCCCc1nnc(S)n1N=Cc1ccccc1[N+](=O)[O-] [Compound T15]
3. CCCCCCCCCCCCCCCc1nnc(S)n1N=Cc1cccc(Br)c1 [Compound T13]
4. CCCCCCCCCCCCCCCc1nnc(S)n1N=Cc1ccccc1O [Compound T7]
5. CCCCCCCCCCCCCCCc1nnc(S)n1N=Cc1ccc(Br)cc1 [Compound T14]
6. CCCCCCCCCCCCCCCc1nnc(S)n1N=Cc1ccc(C)cc1 [Compound T3]

1: 37.50 µg/mL; 2: 47.99 µg/mL; 3: 36.40 µg/mL; 4: 38.54 µg/mL; 5: 37.52 µg/mL; 6: 34.38 µg/mL

Consider the following items and state reported IC50 for each.
1. CCCCCCCCCCCCCCCc1nnc(S)n1N=Cc1ccco1 [Compound T20]
2. CCCCCCCCCCCCCCCc1nnc(S)n1N=Cc1ccccc1 [Compound T1]
3. CCCCCCCCCCCCCCCc1nnc(S)n1N=Cc1cccc(Cl)c1 [Compound T10]
4. CCCCCCCCCCCCCCCc1nnc(S)n1N=Cc1ccc(OC)c(O)c1 [Compound T6]

["46.34 µg/mL", "46.83 µg/mL", "43.57 µg/mL", "45.66 µg/mL"]

* * *

# System: Bacillus subtilis
# ASSAY_NAME: In vitro antimicrobial screening, tube dilution method
# Type: cell-based
# CONDITION_NOTES: Bacillus subtilis; B. substilis, Gram +ve; nutrient broth, 37 ± 1 °C, 24 h; read-out: Minimum inhibitory concentration
PROPERTY_NAME: MIC (µM)
Give bare numbers, in µM.

CCCCCCCCCCCCCCCc1nnc(S)n1N=Cc1ccc(O)cc1
116
CCCCCCCCCCCCCCCc1nnc(S)n1N=Cc1ccc(Cl)cc1
55.6
CCCCCCCCCCCCCCCc1nnc(S)n1N=Cc1ccc(OC)c(O)c1
108

Consider the following items and state reported MIC for each.
1. CCCCCCCCCCCCCCCc1nnc(S)n1N=Cc1cccc([N+](=O)[O-])c1
2. CC1(C)S[C@@H]2[C@H](NC(=O)[C@H](N)c3ccc(O)cc3)C(=O)N2[C@H]1C(=O)O [Amoxicillin, reference compound]
3. CCCCCCCCCCCCCCCc1nnc(S)n1N=Cc1ccc(Br)cc1
4. CCCCCCCCCCCCCCCc1nnc(S)n1N=Cc1ccc(Cl)cc1Cl
5. CCCCCCCCCCCCCCCc1nnc(S)n1N=Cc1ccc(C=O)cc1
6. CCCCCCCCCCCCCCCc1nnc(S)n1N=Cc1cccc(Br)c1

[109, 17.1, 50.6, 103, 56.4, 101]

* * *

Exercise: for every item that follows, state its recorded inhibition at 100 µg/mL.
# TARGET_OF_ASSAY: Jack Bean Urease (Canavalia ensiformis)
# ASSAY_NAME: biochemical
Answers are plain numbers, in %.

As a guide, the following entries are already answered.
CCCCCCCCCCCCCCCc1nnc(S)n1N=Cc1ccc(OC)c(OC)c1 [Compound T4]
79.5
CCCCCCCCCCCCCCCc1nnc(S)n1N=Cc1ccc(Br)cc1 [Compound T14]
57.8
CCCCCCCCCCCCCCCc1nnc(S)n1N=Cc1ccc(N(C)C)cc1 [Compound T9]
92.7

Consider the following items and state reported inhibition at 100 µg/mL for each.
1. CCCCCCCCCCCCCCCc1nnc(S)n1N=Cc1ccccc1O [Compound T7]
2. CCCCCCCCCCCCCCCc1nnc(S)n1N=Cc1ccc(C)cc1 [Compound T3]
3. CCCCCCCCCCCCCCCc1nnc(S)n1N=Cc1cccc(Br)c1 [Compound T13]

1. 91.9
2. 79.1
3. 98.9

meta.source: paper PMC7818921
